Target: T1, SX35 chimera (Drosophila melanogaster / Sciara …, UniProt P19339 1-123+=R+Q86QM9:73-287, internal_change)
T1 sequence: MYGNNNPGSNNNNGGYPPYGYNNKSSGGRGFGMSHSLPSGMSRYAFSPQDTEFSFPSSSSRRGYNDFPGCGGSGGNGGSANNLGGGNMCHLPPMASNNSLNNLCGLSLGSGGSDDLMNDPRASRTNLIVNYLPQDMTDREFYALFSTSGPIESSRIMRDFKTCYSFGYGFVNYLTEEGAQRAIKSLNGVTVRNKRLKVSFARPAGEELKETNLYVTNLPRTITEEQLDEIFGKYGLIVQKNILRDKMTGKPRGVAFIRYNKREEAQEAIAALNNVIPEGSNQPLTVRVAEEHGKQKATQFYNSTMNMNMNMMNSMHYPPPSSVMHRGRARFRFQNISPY
Assay: EMSA; apparent Kd, Hill fit; error 95% CI; 20 mM Hepes pH 8.0, 0.1 M KCl, 0.5 mM EDTA, 1 mM DTT, 0.05% NP40, 20% glycerol, 3 µg yeast tRNA; 5 min on ice, then 10 min at room temperature with RNA; 5% native PAGE, 0.25x TBE
Settings: protein: recombinant; tags: GST; label: fluorescein (RNA labelling mix)

{"Binder": "ACAUAUUUUUUUUCACAGC (ssRNA) [single poly(U) SXL site]", "Kd / µM": 230}
